Item-by-item account of absorbance at 450 nm
- measurement-target: T1, fragment DIR-II (last 27 amino acids of the sequence encoded by the retained intron of DIR) (human)
- T1 construct: also called target fragment DIR-II
- T1 peptide: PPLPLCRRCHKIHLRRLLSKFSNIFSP
- method-notes: ELISA, DIR-II coated; mAb (1 mg/mL) diluted 1:2k
measure: absorbance at 450 nm

binder: DIR antibody IR-II-4 (antibody, V domains shown, Monoclonal antibody) VH: QVQLQQSGAELMKPGASVKISCKATGYTFSSYWIEWVKQRPGHGLEWIGEILPGSGSTNYNEKFKGKATFTADTSSNTAYMQLNSLTSEDSAVYYCARTDDGYLSYFAMDYWGQGTSVTVSS VL: DILMTQTPASLAVSLGQRATISCKASQSVDYDGDSYMNWYQQKPGQPPKLLIYAASNLESGIPARFSGSGSGTDFTLNIHPVEEEDAATYYCQQSNEDPRTFGGGTKLEIK
measure: absorbance at 450 nm
value-observed: 3.3 absorbance (450 nm)

binder: DIR antibody IR-II-2 (antibody, V domains shown, Monoclonal antibody) VH: EVQLQQSGAELMKPGASVKISCKATGYTFSSYWIEWVKQRPGHGLEWIGEILPGSGTTNYNEKFKGKATFTVDTSSNTAYMQLSSLTSEDSAVYYCARSGVITARGDYYAMDYWGQGTSVTVSS VL: DIVMTQSPASLAVSLGQRATISCKASQSVDYDGDSYMNWYQQKPGQPPKLLIYAASNLDSGIPARFSGSGSGTDFTLNIHPVEEEDAATYYCQQSNEDPRTFGGGTKLEIK
measure: absorbance at 450 nm
value-observed: 3.23 absorbance (450 nm)

binder: DIR antibody IR-II-7 (antibody, V domains shown, Monoclonal antibody) VH: QVQLQQSGAELMKPGASVKISCKATGYTFSNYWIEWIKQRPGHGLEWIGEILPGSYYSTNYNEKFKDKATFTADTSSNTAYIQLSSLTSEDSAVYYCARSGIITTRGDYFAMDYWGQGTSVTVSS VL: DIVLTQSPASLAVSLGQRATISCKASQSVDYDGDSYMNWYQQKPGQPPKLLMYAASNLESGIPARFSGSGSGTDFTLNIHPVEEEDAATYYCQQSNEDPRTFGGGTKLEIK
measure: absorbance at 450 nm
value-observed: 3.09 absorbance (450 nm)

binder: DIR antibody IR-II-1 (antibody, V domains shown, Monoclonal antibody) VH: QVQLKESGAELMKPGASVKISCKATGYTFSSYWIEWVKQRPGHGLEWIGEILPGSGTTNYNDKFKGKATFTADTSSNTAYMQLSNLTSEDSAVYYCARSYDGYYVFDYWGQGTTLTVSS VL: DIELTQSPASLAVSLGQRATISCKASQSVDYDGDSYMNWYQQKPGQPPKLLIYAASNLESGIPARFSGSGSGTDFTLNIHPVEEEDAATYYCQQSNEDPRTFGGGTKLEIK
measure: absorbance at 450 nm
value-observed: 3.14 absorbance (450 nm)

binder: DIR antibody IR-II-6 (antibody, V domains shown, Monoclonal antibody; also called detection antibody) VH: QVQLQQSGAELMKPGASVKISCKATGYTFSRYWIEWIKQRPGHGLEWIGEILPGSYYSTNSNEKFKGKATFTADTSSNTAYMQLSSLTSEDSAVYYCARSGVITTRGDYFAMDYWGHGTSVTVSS VL: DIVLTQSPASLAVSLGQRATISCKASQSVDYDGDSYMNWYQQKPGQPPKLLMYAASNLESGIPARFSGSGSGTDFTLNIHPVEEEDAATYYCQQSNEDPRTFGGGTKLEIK
measure: absorbance at 450 nm
value-observed: 3.09 absorbance (450 nm)

binder: DIR antibody IR-II-9 (antibody, V domains shown, Monoclonal antibody) VH: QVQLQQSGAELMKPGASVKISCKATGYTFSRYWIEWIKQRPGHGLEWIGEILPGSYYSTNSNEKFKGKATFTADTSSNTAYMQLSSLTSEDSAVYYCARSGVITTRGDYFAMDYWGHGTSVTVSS VL: DIELTQSPASLAVSLGQRATISCKASQSVDYDGESYMNWYQQKPGQPPKLLIYAASNLESGIPARFSGSGSGTDFTLNIHPVEEEDAATYYCQQSYDDPRAFGGGTKLEIK
measure: absorbance at 450 nm
value-observed: 3.11 absorbance (450 nm)

binder: DIR antibody IR-II-8 (antibody, V domains shown, Monoclonal antibody) VH: QVQLQQSGAELMKPGASVKISCKATGYTFSNYWIEWVKQRPGHGLEWIGEILPGSGSTNYNEKFKGKATFTADTSSNTAYMQLSSLTSEDSAVYYCARSGMITTRGDYFAMDYWGQGTSVTVSS VL: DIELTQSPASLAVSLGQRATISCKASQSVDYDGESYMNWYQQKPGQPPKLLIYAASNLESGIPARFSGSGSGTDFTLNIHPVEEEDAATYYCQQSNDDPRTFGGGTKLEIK
measure: absorbance at 450 nm
value-observed: 3.2 absorbance (450 nm)

binder: DIR antibody IR-II-10 (A2D10) (antibody, V domains shown, Monoclonal antibody) VH: EVQLQQSGPELVKPGASVKISCKTSGYTFTEYTMHWVKQSHGKSLEWIGGIYPHNGGTNYNQKFKGKATLTVDKSSSTAYMELRSLTSEDSAVYYCTEDLTFDYWGQGTTLTVSS VL: DIQMTQTTSSLSASLGDRVTISCSASQDISNYLNWYQQKPDGTVKLLIYYTSSLHSGVPSRFSGSGSGTDYSLTISNLEPEDIATYHCLQYSKLPFTFGSGTKLEIK
measure: absorbance at 450 nm
value-observed: 2.01 absorbance (450 nm)

binder: DIR antibody IR-II-5 (antibody, V domains shown, Monoclonal antibody) VH: QVQLQQSGAEVMKPGASVKISCKATGYTFSSYWIEWIKQRPGHGLEWIGEILPGGYNTNSNENFKGKATFTADTSSNTAYMQLSSLTSEDSAVYYCARSGMITTTGDYYAMDYWGQGTSVTVSS VL: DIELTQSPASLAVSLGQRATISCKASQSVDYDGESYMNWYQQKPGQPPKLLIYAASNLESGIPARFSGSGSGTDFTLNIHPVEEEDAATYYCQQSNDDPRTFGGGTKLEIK
measure: absorbance at 450 nm
value-observed: 3.24 absorbance (450 nm)

Reference for the values: patent US20250060376A1
